// data source = the supplement of paper PMC10567573

Recorded protein stability index values for a group of variants are listed next.
B1: SLC6A17 (parent)
chain: HMFTPKLDKMLDPQVWREAATQVF

# Variants of: B1
# procedure details: protein stability index of a GFP-peptide fusion (GPS, HEK-293T) (PSI 1-6); higher = more stable;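 also: lentivirally expressed fusions sorted by FACS into six bins by GFP to DsRed ratio, PSI derived from sequencing read proportions per bin multiplied by bin number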
# stated conditions: c terminus: a fixed tail appended

construct sequence: HMFTWKLDKMLDPQVWREAATQVF [P5W]
protein stability index: 1.3
--
construct sequence: HMFPPKLDKMLDPQVWREAATQVF [T4P]
protein stability index: 2.07
--
construct sequence: YMFTPKLDKMLDPQVWREAATQVF [H1Y]
protein stability index: 1.79
--
construct sequence: HMFTPKLDKTLDPQVWREAATQVF [M10T]
protein stability index: 1.66
--
construct sequence: HMFTPALDKMLDPQVWREAATQVF [K6A]
protein stability index: 1.99
--
construct sequence: HMFTPKLDKMLDPQVWREAATQGF [V23G]
protein stability index: 2.2
--
construct sequence: HMFTPVLDKMLDPQVWREAATQVF [K6V]
protein stability index: 1.24
--
construct sequence: HMFTPKLDKMLDPQVWREWATQVF [A19W]
protein stability index: 1.35
--
construct sequence: HMFTPKLDKMLDPQVWREAAYQVF [T21Y]
protein stability index: 1.54
--
construct sequence: HMFTPKLDKMLDPQVWREATTQVF [A20T]
protein stability index: 2.19
--
construct sequence: HMFTPKLDKMLDPQVHREAATQVF [W16H]
protein stability index: 3.88
--
construct sequence: PMFTPKLDKMLDPQVWREAATQVF [H1P]
protein stability index: 2.72
--
construct sequence: HMFTPKLDKMLDPVVWREAATQVF [Q14V]
protein stability index: 2.51
--
construct sequence: HMFTPKLDKMLDPQVWRKAATQVF [E18K]
protein stability index: 1.08
--
construct sequence: HMFTPYLDKMLDPQVWREAATQVF [K6Y]
protein stability index: 2.85
--
construct sequence: HMFTPKLDKMLDPQVWREAATQVS [F24S]
protein stability index: 3.39
--
construct sequence: HMFTPKLDMMLDPQVWREAATQVF [K9M]
protein stability index: 2.03
--
construct sequence: HMFTPKLDKMLDPQVWRENATQVF [A19N]
protein stability index: 2.35
--
construct sequence: HMFTPKLDKMLDPQVWREAATDVF [Q22D]
protein stability index: 2.43
--
construct sequence: HMFTPKLDKMYDPQVWREAATQVF [L11Y]
protein stability index: 2.43
--
construct sequence: HMFTPKLDKMLDPQVWRIAATQVF [E18I]
protein stability index: 1.97
--
construct sequence: HMFTPKLMKMLDPQVWREAATQVF [D8M]
protein stability index: 1.81
--
construct sequence: HMFTPKLDKMLDPQVWREAAHQVF [T21H]
protein stability index: 1.76
--
construct sequence: HMFTPKLDKMTDPQVWREAATQVF [L11T]
protein stability index: 2.18
--
construct sequence: HMFTAKLDKMLDPQVWREAATQVF [P5A]
protein stability index: 2.46
--
construct sequence: HMFTPKLDKMLDPQVWRESATQVF [A19S]
protein stability index: 1.52
--
construct sequence: HMFAPKLDKMLDPQVWREAATQVF [T4A]
protein stability index: 2.4
--
construct sequence: HMFTPKLDKMLDPQVWREAAAQVF [T21A]
protein stability index: 1.91
--
construct sequence: HMFTPKLDKMLDPQVWREAATQSF [V23S]
protein stability index: 2.05
--
construct sequence: HMFTPKLDKMLDPQRWREAATQVF [V15R]
protein stability index: 3.24
--
construct sequence: HMFTPKLDNMLDPQVWREAATQVF [K9N]
protein stability index: 2.04
--
construct sequence: HMFTPKLIKMLDPQVWREAATQVF [D8I]
protein stability index: 1.65
--
construct sequence: HMFTPKLDKMLDPQVWRELATQVF [A19L]
protein stability index: 1.48
--
construct sequence: HMFTPKLDKMLDPQVVREAATQVF [W16V]
protein stability index: 2.59
--
construct sequence: HMLTPKLDKMLDPQVWREAATQVF [F3L]
protein stability index: 1.99
--
construct sequence: HMFTPKLDKMQDPQVWREAATQVF [L11Q]
protein stability index: 2.35
--
construct sequence: HMFTPKLDKMLDPQVWREAATQMF [V23M]
protein stability index: 1.55
--
construct sequence: HMFTPKLDKMLDPQVWREAAEQVF [T21E]
protein stability index: 2.42
--
construct sequence: HMVTPKLDKMLDPQVWREAATQVF [F3V]
protein stability index: 2.7
--
construct sequence: HMFTPKLDKWLDPQVWREAATQVF [M10W]
protein stability index: 2.05
--
construct sequence: HMFTPKLDKMLDPQVWREAQTQVF [A20Q]
protein stability index: 1.7
--
construct sequence: HMFTPKLDKMLYPQVWREAATQVF [D12Y]
protein stability index: 1.34
--
construct sequence: HMFTPDLDKMLDPQVWREAATQVF [K6D]
protein stability index: 2.67
--
construct sequence: HMQTPKLDKMLDPQVWREAATQVF [F3Q]
protein stability index: 2.17
--
construct sequence: HMFTPKLDKMLDPQVWRMAATQVF [E18M]
protein stability index: 1.52
--
construct sequence: HMFTPKLDKMLRPQVWREAATQVF [D12R]
protein stability index: 1.81
--
construct sequence: HMFTPKLDKMLDPQVWREAATQPF [V23P]
protein stability index: 2.2
--
construct sequence: HMFTPKLDKMLDPQVWREAAIQVF [T21I]
protein stability index: 1.48
--
construct sequence: HHFTPKLDKMLDPQVWREAATQVF [M2H]
protein stability index: 2.49
--
construct sequence: HMFTPKIDKMLDPQVWREAATQVF [L7I]
protein stability index: 1.4
--
construct sequence: HMFTPKLDKMLDPQVWREAPTQVF [A20P]
protein stability index: 1.48
--
construct sequence: HMFTPKLDKMLDPQVWREAATQEF [V23E]
protein stability index: 2.9
--
construct sequence: HMFTPKLDKMLDPQVWREAVTQVF [A20V]
protein stability index: 1.22
--
construct sequence: HMFTPKLDKMHDPQVWREAATQVF [L11H]
protein stability index: 2.23
--
construct sequence: HMFTPKLDKMLDPQVWREAATQVI [F24I]
protein stability index: 1.54
--
construct sequence: HMGTPKLDKMLDPQVWREAATQVF [F3G]
protein stability index: 1.91
--
construct sequence: HMFTPKLDKMLDPQVWHEAATQVF [R17H]
protein stability index: 1.74
--
construct sequence: HMFTPKLDKMLDPQVWREAATQWF [V23W]
protein stability index: 1.75
--
construct sequence: HMFTPKLDKMLDPQVWREAAMQVF [T21M]
protein stability index: 1.54
--
construct sequence: HMFTPKLEKMLDPQVWREAATQVF [D8E]
protein stability index: 1.5
--
construct sequence: HMFTPKLDKMLDPQVWREAATPVF [Q22P]
protein stability index: 1.67
--
construct sequence: HMFTPKLDKMLDPQVWREAATQTF [V23T]
protein stability index: 2.02
--
construct sequence: HFFTPKLDKMLDPQVWREAATQVF [M2F]
protein stability index: 1.65
--
construct sequence: HMFTPKLDKMLDPQVWRDAATQVF [E18D]
protein stability index: 1.87
--
construct sequence: HMFTPKLDKMLMPQVWREAATQVF [D12M]
protein stability index: 1.42
--
construct sequence: HMFTPKLDKMLDPQVWREAATQLF [V23L]
protein stability index: 1.58
--
construct sequence: HMFTPKLDKMLDPQVWREAADQVF [T21D]
protein stability index: 2.36
--
construct sequence: HMFTPKLDKYLDPQVWREAATQVF [M10Y]
protein stability index: 2.23
--
construct sequence: HMFTPKLDKMLDPQVWREAAPQVF [T21P]
protein stability index: 2.46
--
construct sequence: HMFTPKLDKMLDPQVWREAATGVF [Q22G]
protein stability index: 1.93
--
construct sequence: HMFTPKLDKMLDPQVWREAASQVF [T21S]
protein stability index: 1.94
--
construct sequence: HMFTPKLDLMLDPQVWREAATQVF [K9L]
protein stability index: 1.83
--
construct sequence: HMFTPKLDKMLDPQVWREAAWQVF [T21W]
protein stability index: 2.48
--
construct sequence: HMFTPKLDKMLDPQVWWEAATQVF [R17W]
protein stability index: 1.6
--
construct sequence: HMPTPKLDKMLDPQVWREAATQVF [F3P]
protein stability index: 2.65
--
construct sequence: HMFTPGLDKMLDPQVWREAATQVF [K6G]
protein stability index: 1.8
--
construct sequence: HMFTPKLTKMLDPQVWREAATQVF [D8T]
protein stability index: 2.27
--
construct sequence: HMFTPKLDKMLDPAVWREAATQVF [Q14A]
protein stability index: 1.73
--
construct sequence: HMFWPKLDKMLDPQVWREAATQVF [T4W]
protein stability index: 2.21
--
construct sequence: HMFTPKLDKMLDPQVRREAATQVF [W16R]
protein stability index: 3.72
--
construct sequence: HMFTPKLDKMLTPQVWREAATQVF [D12T]
protein stability index: 2.45
--
construct sequence: HMFTPKLDKMLDEQVWREAATQVF [P13E]
protein stability index: 2.4
--
construct sequence: HMFTPKLDKMLDPRVWREAATQVF [Q14R]
protein stability index: 1.94
--
construct sequence: HMFTPKLSKMLDPQVWREAATQVF [D8S]
protein stability index: 2.3
--
construct sequence: HMFTPKLDKRLDPQVWREAATQVF [M10R]
protein stability index: 1.78
--
construct sequence: HMFTPKLKKMLDPQVWREAATQVF [D8K]
protein stability index: 2.79
--
construct sequence: HMCTPKLDKMLDPQVWREAATQVF [F3C]
protein stability index: 2.25
--
construct sequence: HMFTPKLDKMLDPQVWRNAATQVF [E18N]
protein stability index: 2.3
--
construct sequence: NMFTPKLDKMLDPQVWREAATQVF [H1N]
protein stability index: 1.56
--
construct sequence: HMFTPFLDKMLDPQVWREAATQVF [K6F]
protein stability index: 1.65
--
construct sequence: HMFGPKLDKMLDPQVWREAATQVF [T4G]
protein stability index: 2.1
